target: BRD4-full length: recombinant human bromodomain containing protein 4 (bromodomain 1 and 2; aa 2–1362) (Homo sapiens, UniProt O60885); construct: (bromodomain 1 and 2; aa 2–1362; Genbank Accesstion # NM_058243); assay: BRD4 binding assay (AlphaScreen); settings: AlphaScreen assay
pIC50: −log10 of the molar value.
METRIC: pIC50

1 = CCCS(=O)(=O)Nc1ccc2oc(=O)ccc2c1
2 = O=c1ccc2cc(NS(=O)(=O)c3ccc4c(c3)CCO4)ccc2o1
Input: Hi, I'm comparing 1 with 2 and wondering which one has the bigger number for pIC50. Any idea? Lab note: record the label of whichever item you select.
Output: 2

###

target: BRD4-full length: recombinant human bromodomain containing protein 4 (bromodomain 1 and 2; aa 2–1362) (Homo sapiens, UniProt O60885); construct: (bromodomain 1 and 2; aa 2–1362; Genbank Accesstion # NM_058243); host or cells: Sf9 insect cells; assay: BRD4 binding assay (AlphaScreen); conditions: LE = 1.4 (pIC50/heavy atoms)
METRIC: LE (Ligand Efficiency)

O=c1ccc2cc(NS(=O)(=O)c3ccc(Cl)cc3Cl)ccc2o1 0.35
O=c1ccc2cc(NS(=O)(=O)c3ccc4ccccc4c3)ccc2o1 0.28
O=c1ccc2cc(NS(=O)(=O)C3CCCCC3)ccc2o1 0.31
CC(C)(C)c1ccc(S(=O)(=O)Nc2ccc3oc(=O)ccc3c2)cc1 0.30
O=c1ccc2cc(NS(=O)(=O)C3CCCC3)ccc2o1 0.33

###

target: BRD4-full length: recombinant human bromodomain containing protein 4 (bromodomain 1 and 2; aa 2–1362) (Homo sapiens); construct: (bromodomain 1 and 2; aa 2–1362; Genbank Accesstion # NM_058243); experiment: BRD4 binding assay (AlphaScreen); conditions: AlphaScreen assay
pIC50: −log10 of the molar value.
METRIC: pIC50

Below, each entry is followed by its recorded pIC50 result.
O=c1ccc2cc(NS(=O)(=O)C3CCCCC3)ccc2o1 4.72
O=c1ccc2cc(NS(=O)(=O)c3ccccc3Cl)ccc2o1 5.66
O=c1ccc2cc(NS(=O)(=O)c3ccc(Cl)cc3)ccc2o1 5.53

A = O=c1ccc2cc(NS(=O)(=O)c3ccc4ccccc4c3)ccc2o1
B = CCCCS(=O)(=O)Nc1ccc2oc(=O)ccc2c1
Input: Hi, I'm comparing A with B and wondering which one has the bigger number for pIC50. Any idea? Lab note: record the label of whichever item you select.
Output: A

###

biological target: BRD4-full length: recombinant human bromodomain containing protein 4 (bromodomain 1 and 2; aa 2–1362) (Homo sapiens); construct: (bromodomain 1 and 2; aa 2–1362; Genbank Accesstion # NM_058243); assay: BRD4 binding assay (AlphaScreen); conditions: AlphaScreen assay
pIC50: −log10 of the molar value.
METRIC: pIC50

O=c1ccc2cc(NS(=O)(=O)C3CCCC3)ccc2o1 4.75
O=c1ccc2cc(NS(=O)(=O)c3ccccc3)ccc2o1 5.18
COc1ccc(S(=O)(=O)Nc2ccc3oc(=O)ccc3c2)cc1 5.14
COc1ccc(NS(=O)(=O)c2ccc3oc(=O)ccc3c2)cc1 4.49

1 = CC(C)(C)c1ccc(S(=O)(=O)Nc2ccc3oc(=O)ccc3c2)cc1
2 = COc1ccccc1S(=O)(=O)Nc1ccc2oc(=O)ccc2c1
Input: I'm curious, which of these has a smaller pIC50 number: 1 or 2 ? Lab note: record the label of whichever item you select.
Output: 1
(1: 5.29, 2: 6.01)

I = O=c1ccc2cc(NS(=O)(=O)c3ccc(Cl)cc3Cl)ccc2o1
II = O=c1ccc2cc(NS(=O)(=O)c3cccs3)ccc2o1
III = N#Cc1cccc(S(=O)(=O)Nc2ccc3oc(=O)ccc3c2)c1
Input: Task field, ranking: reported pIC50, descending order. List the labels in the requested order.
Output: I, III, II
